System: 883617-216-R-J1-PDC tumor spheroids, viability;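 note: spheroids exposed to agents for 7 days before the viability read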
Experiment: Anticancer human tumor 883617-216-R-J1-PDC patient-derived bladder carcinoma cell line growth inhibition [PI3K]
Details: second compound 3.16 µM; first compound 1 µM; active compounds read low; spheroids with HUVEC and MSC
From the text: Combinatorial screen of targeted agents with the PI3K inhibitors inavolisib, alpelisib, duvelisib, and copanlisib in multi-cell type tumor spheroids A high-throughput screen of multi-cell type tumor spheroids was designed to identify active combinations of targeted small molecules and PI3K pathway inhibitors. […] Compounds. […] If the clinical Cmax for an agent had not been determined, the highest concentration tested was 10 microM. […]
For each record, check the reported viability, T/C: if it is below 70% write Y, else write N.

# COMPOUND, CLASS NAME
measured = [
    ("C#Cc1c(F)ccc2cc(O)cc(-c3ncc4c(N5CC6CCC(C5)N6)nc(OCC56CCCN5CC(F)C6)nc4c3F)c12 (stereo not given) + Cc1nc(NC(=O)N2CCCC2C(N)=O)sc1-c1ccnc(C(C)(C)C(F)(F)F)c1", "Y"),
    ("CNC(=O)c1ccc(N2C(=S)N(c3ccc(C#N)c(C(F)(F)F)c3)C(=O)C2(C)C)cc1F + CC(Nc1ncnc2nc[nH]c12)c1cc2cccc(Cl)c2c(=O)n1-c1ccccc1", "N"),
    ("CC(Cn1ccc(-c2ccc(C#N)c(Cl)c2)n1)NC(=O)c1cc(C(C)O)[nH]n1 (stereo not given) + CC(Nc1ncnc2nc[nH]c12)c1cc2cccc(Cl)c2c(=O)n1-c1ccccc1", "Y"),
]

Numbers sourced from PubChem BioAssay AID1963973.
